# System: HIV
# MEASUREMENT_PROTOCOL: MT4 assay: antiviral HIV activity (cell protection, cell titer glo readout at 96 hours)
# Type: cell-based
# RUN_PARAMETERS: Human immunodeficiency virus 1, MT4, 96 h, MT4 cells, cell titer glo readout at 96 hours, 10 point dose response; read-out: HIV MT4 Assay IC50
compounds and their reported IC50
Only the number, expressed in nM, is required.

Which IC50 is listed for Cc1nc2c(cc(C(=O)NC[C@H](C)c3ccccc3)n2C)c(-c2cc(F)c3c(c2C)CCCO3)c1[C@H](OC(C)(C)C)C(=O)O [Example 214] ? 44.6

Which IC50 is listed for Cc1nc2c(cc(-c3ccnc(-c4ccc5c(cnn5C)c4)c3)n2C)c(-c2ccc(Cl)cc2)c1[C@H](OC(C)(C)C)C(=O)O [Example 15] ? 13.7

Which IC50 is listed for COC(C)(C)CCNC(=O)c1cc2c(-c3cc(F)c4c(c3C)CCCO4)c([C@H](OC(C)(C)C)C(=O)O)c(C)nc2n1C [Example 279] ? 10

Which IC50 is listed for Cc1nc2c(cc(/C=C/C(=O)NCc3ccc(F)cc3)n2C)c(-c2cc(F)c3c(c2C)CCCO3)c1[C@H](OC(C)(C)C)C(=O)O [Example 417] ? 33.7

Which IC50 is listed for Cc1nc2c(cc(/C=C/C(=O)NCC3CCCCC3)n2C)c(-c2cc(F)c3c(c2C)CCCO3)c1[C@H](OC(C)(C)C)C(=O)O [Example 414] ? 17

Which IC50 is listed for Cc1nc2c(cc(-c3ccnc(-c4ccc5ccccc5c4)c3)n2C)c(-c2cc(F)c3c(c2C)CCCO3)c1[C@H](OC(C)(C)C)C(=O)O (atropisomer, axis not shown) [Example 39] ? 17.3
